TEST_NAME: pH over time of 0.1 M aqueous solutions of polyhydroxy-lactones (reaction with water to free acid)
Assay type: physicochemical
TEST_CONDITIONS: 0.1 M, 6 hours
PARAMETER: pH in aqueous solution

* O=C1OC[C@@H](O)[C@H]1O [D-erythronolactone] | 6.2
* O=C1O[C@@H]([C@H](O)[C@H](O)CO)[C@@H](O)C1O (stereo partly drawn) [D-glucoheptonolactone] | 3.9
* O=C1O[C@@H](C(O)CO)[C@H](O)C1O (stereo partly drawn) [D-gulonolactone] | 4.6

[A] O=C1O[C@@H]([C@H](O)CO)[C@H](O)[C@H]1O [D-galactonolactone]
[B] O=C1O[C@H]([C@@H](O)CO)C(O)=C1O [Control, ascorbic acid, reference compound]
Could you tell me which of these two has the smaller pH in aqueous solution figure? First: A Second: B Which one? Tell me its label.
B
(B: 2.1, A: 3.9)

---

TEST_NAME: pH over time of 0.1 M aqueous solutions of polyhydroxy-lactones (reaction with water to free acid)
Type: physicochemical
TEST_CONDITIONS: 0.1 M, 6 hours
PARAMETER: pH in aqueous solution

* O=C1O[C@H](CO)[C@@H](O)[C@H]1O | 5.9
* CC1(C)COC(=O)C1O (stereo not shown) | 6.4

[I] O=C[C@H](O)[C@H]1OC(=O)[C@@H](O)[C@H]1O
[II] O=C1O[C@H](CO)[C@@H](O)[C@H](O)[C@H]1O
Could you tell me which of these two has the smaller pH in aqueous solution figure? First: I Second: II Which one? Tell me its label.
II
(II: 1.9, I: 4.8)

---

TEST_NAME: pH over time of 0.1 M aqueous solutions of polyhydroxy-lactones (reaction with water to free acid)
Assay type: physicochemical
TEST_CONDITIONS: 0.1 M, fresh
PARAMETER: pH in aqueous solution

For orientation, consider the following solved cases.
• O=C[C@H](O)[C@H]1OC(=O)[C@@H](O)[C@H]1O = 5.7
• O=C1O[C@H]([C@@H](O)CO)C(O)=C1O [Control, ascorbic acid, reference compound] = 2.1
• O=C1OC[C@@H](O)[C@H]1O = 6.3
• CC1(C)COC(=O)C1O (stereo not drawn) = 6.5
• O=C1O[C@@H](C(O)CO)[C@H](O)C1O (stereo partly drawn) = 6.2
• O=C1O[C@@H]([C@H](O)CO)[C@H](O)[C@H]1O = 5.1

[a] O=C1O[C@H](CO)[C@@H](O)[C@H]1O
[b] O=C1O[C@H](CO)[C@@H](O)[C@H](O)[C@H]1O
Could you tell me which of these two has the smaller pH in aqueous solution figure? First: a Second: b Which one? Tell me its label.
b

---

TEST_NAME: pH over time of 0.1 M aqueous solutions of polyhydroxy-lactones (reaction with water to free acid)
Format: physicochemical
TEST_CONDITIONS: 0.1 M, 1 hour
PARAMETER: pH in aqueous solution

* CC1(C)COC(=O)C1O (stereo not drawn) | 6.5
* O=C1O[C@@H]([C@H](O)[C@H](O)CO)[C@@H](O)C1O (stereo partly drawn) | 5.6
* O=C1O[C@H](CO)[C@@H](O)[C@H](O)[C@H]1O | 2.0
* O=C[C@H](O)[C@H]1OC(=O)[C@@H](O)[C@H]1O | 5.7
* O=C1OC[C@@H](O)[C@H]1O | 6.3

[a] O=C1O[C@@H](C(O)CO)[C@H](O)C1O (stereo partly drawn)
[b] O=C1O[C@H]([C@@H](O)CO)C(O)=C1O [Control, ascorbic acid, reference compound]
Larger number for pH in aqueous solution: a , or b ? Which one? Tell me its label.
a

---

TEST_NAME: pH over time of 0.1 M aqueous solutions of polyhydroxy-lactones (reaction with water to free acid)
Format: physicochemical
TEST_CONDITIONS: 0.1 M, 48 hours
PARAMETER: pH in aqueous solution

For orientation, consider the following solved cases.
• O=C1O[C@@H]([C@H](O)[C@H](O)CO)[C@@H](O)C1O (stereo partly drawn) [D-glucoheptonolactone] = 2.5
• O=C1O[C@H]([C@@H](O)CO)C(O)=C1O [Control, ascorbic acid, reference compound] = 2.1

[1] O=C1O[C@H](CO)[C@@H](O)[C@H](O)[C@H]1O [D-gluconolactone]
[2] O=C1O[C@H](CO)[C@@H](O)[C@H]1O [D-ribonolactone]
Larger number for pH in aqueous solution: 1 , or 2 ? Which one? Tell me its label.
2
(2: 2.8, 1: 1.9)

---

TEST_NAME: pH over time of 0.1 M aqueous solutions of polyhydroxy-lactones (reaction with water to free acid)
Assay type: physicochemical
TEST_CONDITIONS: 0.1 M, 72 hours
PARAMETER: pH in aqueous solution

For orientation, consider the following solved cases.
* O=C1O[C@H]([C@@H](O)CO)C(O)=C1O [Control, ascorbic acid, reference compound] | 2.1
* O=C1O[C@@H]([C@H](O)CO)[C@H](O)[C@H]1O [D-galactonolactone] | 2.4
* O=C1O[C@@H]([C@H](O)[C@H](O)CO)[C@@H](O)C1O (stereo partly drawn) [D-glucoheptonolactone] | 2.3
* O=C1OC[C@@H](O)[C@H]1O [D-erythronolactone] | 3.1
* O=C1O[C@H](CO)[C@@H](O)[C@H]1O [D-ribonolactone] | 2.6
* O=C[C@H](O)[C@H]1OC(=O)[C@@H](O)[C@H]1O [D-glucuronolactone] | 2.3
* CC1(C)COC(=O)C1O [D-pantolactone] | 5.7

[A] O=C1O[C@@H](C(O)CO)[C@H](O)C1O (stereo partly drawn) [D-gulonolactone]
[B] O=C1O[C@H](CO)[C@@H](O)[C@H](O)[C@H]1O [D-gluconolactone]
Larger number for pH in aqueous solution: A , or B ? Which one? Tell me its label.
A
(A: 2.7, B: 1.8)

---

TEST_NAME: pH over time of 0.1 M aqueous solutions of polyhydroxy-lactones (reaction with water to free acid)
Assay type: physicochemical
TEST_CONDITIONS: 0.1 M, 24 hours
PARAMETER: pH in aqueous solution

• O=C1O[C@H]([C@@H](O)CO)C(O)=C1O [Control, ascorbic acid, reference compound] = 2.1
• O=C1O[C@@H]([C@H](O)[C@H](O)CO)[C@@H](O)C1O (stereo partly drawn) [D-glucoheptonolactone] = 3.1
• O=C1O[C@@H]([C@H](O)CO)[C@H](O)[C@H]1O [D-galactonolactone] = 3.2

[P] O=C1O[C@@H](C(O)CO)[C@H](O)C1O (stereo partly drawn) [D-gulonolactone]
[Q] O=C1O[C@H](CO)[C@@H](O)[C@H](O)[C@H]1O [D-gluconolactone]
Could you tell me which of these two has the smaller pH in aqueous solution figure? First: P Second: Q Which one? Tell me its label.
Q
(Q: 1.9, P: 3.5)

---

TEST_NAME: pH over time of 0.1 M aqueous solutions of polyhydroxy-lactones (reaction with water to free acid)
Assay type: physicochemical
TEST_CONDITIONS: 0.1 M, 48 hours
PARAMETER: pH in aqueous solution

• O=C1O[C@@H]([C@H](O)CO)[C@H](O)[C@H]1O = 2.6
• O=C1O[C@@H](C(O)CO)[C@H](O)C1O (some centres unmarked) = 3.0
• O=C[C@H](O)[C@H]1OC(=O)[C@@H](O)[C@H]1O = 2.6
• CC1(C)COC(=O)C1O (centres unmarked) = 5.7
• O=C1OC[C@@H](O)[C@H]1O = 3.2

---

TEST_NAME: pH over time of 0.1 M aqueous solutions of polyhydroxy-lactones (reaction with water to free acid)
Format: physicochemical
TEST_CONDITIONS: 0.1 M, 24 hours
PARAMETER: pH in aqueous solution

* CC1(C)COC(=O)C1O (stereo not shown) | 5.9
* O=C1O[C@H](CO)[C@@H](O)[C@H]1O | 3.9
* O=C1OC[C@@H](O)[C@H]1O | 5.5
* O=C[C@H](O)[C@H]1OC(=O)[C@@H](O)[C@H]1O | 3.4
